- protocol: Half life in beagle dog at 0.5 mg/kg, iv by LC-MS/MS method
- conditions.used: in vivo
quantity.kind: half-life (h)
// units = h; emit number, no label

>  <structure.notation>
O=C1N[C@]2(CC[C@H]3C[C@H]32)n2c1c1c(c(O)c2=O)C(=O)N(Cc2ccc(F)c(Cl)c2)CC1

>  <observed>
16

$$$$

Now examine the next entry.
## Input Fill in: half-life of `C[C@H](O)CN1C(=O)c2c3c(c(O)c(=O)n2[C@@]12CC[C@H]1C[C@H]12)C(=O)N(Cc1ccc(F)c(Cl)c1)CC3` is ___
## Output 5.9

----------
- protocol: Solubility in SGF at pH 1.8 at room temperature incubated for 4 hrs
- Format: physicochemical
solubility at 4 h overview
// units = µg/mL; emit number, no label

## Input Fill in: solubility at 4 h of `CN1C(=O)c2c3c(c(O)c(=O)n2[C@]12CC[C@@H]1C[C@@]12CO)C(=O)N(Cc1ccc(F)c(Cl)c1)CC3` is ___
## Output 17

## Input Fill in: solubility at 4 h of `C[C@H](O)CN1C(=O)c2c3c(c(O)c(=O)n2[C@@]12CC[C@H]1C[C@H]12)C(=O)N(Cc1ccc(F)c(Cl)c1)CC3` is ___
## Output 30
